test system: SK-MEL-28; test: NCI tumour cell line growth inhibition, 48 h
Active and inactive are the calls of the source. Rule as the data show it: active = GI50 up to about 1.1 µM and inactive = higher.
API: response.call in 1.0 = active, 0.0 = inactive

Below, 5 compounds whose answers are already recorded.
compound	category
COC(=O)c1ccc(NCc2c(O)ccc(O)c2Br)cc1Cl	0.0
Cc1ccnc2c1c(=O)c1ccccc1n2C	0.0
Nc1nc(N)c2c(CCc3ccc(C(=O)N[C@@H](CCC(=O)O)C(=O)O)cc3)ccnc2n1	0.0
O=[N+]([O-])c1cc(Cl)ccc1S(=O)(=O)c1ccccc1	0.0
CC1(CCc2ccccc2)CC1(Br)Br (configuration not stated)	0.0

Called result for "CCN(CC)CC/N=c1\c2cc(OC)ccc2[nH]c2c([N+](=O)[O-])ccc(NCCN(CC)CC)c12"
0.0

Called result for COc1ccc(N2C(=O)CSC2c2cc3cc(Br)ccc3nc2Cl)cc1 (configuration not stated)
0.0

Called result for "CCOC(=O)CN1C(=O)c2cc([N+](=O)[O-])cc3cc([N+](=O)[O-])cc(c23)C1=O"
0.0
